Measured inhibition at 0.3 µM, listed per entry.
target: human His-PIM1 [2-313] (Homo sapiens); construct: purified human His-PIM1 [2-313] enzyme; His (N); purchased University of Dundee, Scotland; host or cells: baculovirus system; assay: PIM1 in-vitro mobility shift assay (Caliper LC3000, FL-Ahx-Bad phosphorylation); type: biochemical; details: 1.5 h; percent inhibition at 0.3 uM compound; read-out: PIM1 % I at 0.3 uM
Sequence (P11309 2-313): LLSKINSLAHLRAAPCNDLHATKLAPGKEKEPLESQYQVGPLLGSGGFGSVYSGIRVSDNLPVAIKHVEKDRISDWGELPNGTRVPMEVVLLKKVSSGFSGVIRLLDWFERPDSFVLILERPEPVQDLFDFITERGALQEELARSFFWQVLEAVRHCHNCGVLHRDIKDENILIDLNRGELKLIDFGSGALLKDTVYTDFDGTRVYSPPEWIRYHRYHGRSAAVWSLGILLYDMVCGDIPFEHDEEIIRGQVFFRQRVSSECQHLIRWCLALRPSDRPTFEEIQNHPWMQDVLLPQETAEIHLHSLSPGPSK
Where a name gives a salt, the structure may show the parent alone.

Illustrative cases are given below, each with its answer.
molecule	test-target	inhibition at 0.3 µM
CCN(CC)CCOc1ccccc1/C=C1\SC(=O)NC1=O [Example 64]	human His-PIM1 [2-313] (Homo sapiens)	86.5%
CC(C)Oc1cccc(/C=C2\SC(=O)NC2=O)c1N1CC[C@H](N)C1 [Example 122P, hydrochloride]	human His-PIM1 [2-313] (Homo sapiens)	> 95%
O=C1NC(=O)/C(=C/c2cccc(N3CCOCC3)c2)S1 [Example 83, trifluoroacetate]	human His-PIM1 [2-313] (Homo sapiens)	34%

// query inhibition at 0.3 µM value for entry O=C1NC(=O)/C(=C/c2cc(C(F)(F)F)cc(Cl)c2N2CCN(CCO)CC2)S1 [Example 28]
90%

Record request: inhibition at 0.3 µM value, item N[C@@H]1CCCN(c2ccccc2/C=C2\SC(=O)NC2=O)C1 [Example 122W, hydrochloride]
> 95%

What does the data say about its inhibition at 0.3 µM? Entry: CC(C)Oc1cccc(/C=C2\SC(=O)NC2=O)c1N1CCC[C@@H](N)C1 [Example 122O, hydrochloride]
> 95%

What value of inhibition at 0.3 µM has been recorded for this entry: O=C1NC(=O)/C(=C/c2ccccc2N2CCNCC2)S1 [Example 115, hydrochloride]
93.3%

Given the molecule NC[C@@H]1CCN(c2c(Cl)cccc2/C=C2\SC(=O)NC2=O)C1 [Example 122C] , what is its reported inhibition at 0.3 µM?
> 95%
